assayed_system: human P2X2/3 receptors (Homo sapiens, UniProt P56373+Q9UBL9)
Construct: expressed in transfected cells; host or cells: human astrocytoma 1321N1 (1312N1 [sic])
Sequence (P56373 1-397): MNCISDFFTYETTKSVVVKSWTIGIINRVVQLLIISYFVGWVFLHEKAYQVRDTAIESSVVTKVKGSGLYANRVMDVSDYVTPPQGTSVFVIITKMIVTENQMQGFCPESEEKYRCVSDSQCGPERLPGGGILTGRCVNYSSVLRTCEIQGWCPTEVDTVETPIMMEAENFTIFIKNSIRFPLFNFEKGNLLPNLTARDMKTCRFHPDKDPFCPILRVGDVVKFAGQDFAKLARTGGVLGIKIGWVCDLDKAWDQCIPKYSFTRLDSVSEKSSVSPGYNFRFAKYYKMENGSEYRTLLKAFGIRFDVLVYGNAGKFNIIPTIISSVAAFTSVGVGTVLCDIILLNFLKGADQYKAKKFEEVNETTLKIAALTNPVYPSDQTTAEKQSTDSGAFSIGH
Sequence (Q9UBL9 1-471): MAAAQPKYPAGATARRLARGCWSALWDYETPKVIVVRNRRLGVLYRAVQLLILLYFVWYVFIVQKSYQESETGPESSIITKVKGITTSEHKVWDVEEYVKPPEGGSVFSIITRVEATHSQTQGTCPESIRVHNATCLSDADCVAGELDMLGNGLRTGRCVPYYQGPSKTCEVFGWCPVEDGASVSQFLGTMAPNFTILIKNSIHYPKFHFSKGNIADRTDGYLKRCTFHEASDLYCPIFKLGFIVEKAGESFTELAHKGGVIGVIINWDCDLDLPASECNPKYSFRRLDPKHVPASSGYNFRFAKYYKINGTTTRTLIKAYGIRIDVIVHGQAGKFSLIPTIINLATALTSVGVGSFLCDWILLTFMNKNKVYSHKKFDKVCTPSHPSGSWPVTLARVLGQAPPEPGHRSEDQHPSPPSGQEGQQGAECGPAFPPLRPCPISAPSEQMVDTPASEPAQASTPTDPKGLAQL
method: Intracellular calcium measurement, antagonist activity at human P2X2/3 receptors (hP2X23 1321N1), Fluo8
Type: cell-based
condition_details: ratio of column 4) hP2X2/3 to column 3) hP2X3, 1321N1
// values below are reported hP2X23/hP2X3* Selectivity (1321N1)

Sample records with hP2X23/hP2X3* Selectivity (1321N1):
CC(C)N1Cc2c(n(CC(=O)Nc3ccc(F)cn3)c3ccnn3c2=O)C1=O [Example 45] = >86
CC(C)N1Cc2c(n(CC(=O)Nc3ccc(F)cn3)c3cc(C(C)(C)O)nn3c2=O)C1=O [Example 88] = >423
CCc1cc2n(CC(=O)Nc3ccc(F)cn3)c3c(c(=O)n2n1)CN(C1CCNC1)C3=O.Cl (racemic) [Example 236] = >25

Exam item: Which hP2X23/hP2X3* Selectivity (1321N1) is reported with human P2X2/3 receptors (Homo sapiens, UniProt P56373+Q9UBL9) for this entry: CC[C@H](C)N1Cc2c(n(CC(=O)Nc3ccc(F)cn3)c3cc(C(F)(F)F)nn3c2=O)C1=O [Example 20] ?
Marked response: >41

----------
assayed_system: human P2X2/3 receptors (Homo sapiens, UniProt P56373+Q9UBL9)
Construct: expressed in transfected cells; host or cells: human astrocytoma 1321N1 (1312N1 [sic])
Sequence (P56373 1-397): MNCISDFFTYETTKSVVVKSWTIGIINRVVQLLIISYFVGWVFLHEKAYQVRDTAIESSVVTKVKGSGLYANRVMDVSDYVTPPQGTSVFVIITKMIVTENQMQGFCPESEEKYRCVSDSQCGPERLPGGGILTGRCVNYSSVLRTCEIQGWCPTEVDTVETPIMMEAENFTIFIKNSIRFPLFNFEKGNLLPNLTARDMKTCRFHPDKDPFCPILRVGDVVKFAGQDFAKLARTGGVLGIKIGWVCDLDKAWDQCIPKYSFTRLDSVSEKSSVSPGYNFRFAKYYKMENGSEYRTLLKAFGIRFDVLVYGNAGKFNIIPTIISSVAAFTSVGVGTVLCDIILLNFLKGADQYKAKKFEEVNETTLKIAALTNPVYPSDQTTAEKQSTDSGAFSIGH
Sequence (Q9UBL9 1-471): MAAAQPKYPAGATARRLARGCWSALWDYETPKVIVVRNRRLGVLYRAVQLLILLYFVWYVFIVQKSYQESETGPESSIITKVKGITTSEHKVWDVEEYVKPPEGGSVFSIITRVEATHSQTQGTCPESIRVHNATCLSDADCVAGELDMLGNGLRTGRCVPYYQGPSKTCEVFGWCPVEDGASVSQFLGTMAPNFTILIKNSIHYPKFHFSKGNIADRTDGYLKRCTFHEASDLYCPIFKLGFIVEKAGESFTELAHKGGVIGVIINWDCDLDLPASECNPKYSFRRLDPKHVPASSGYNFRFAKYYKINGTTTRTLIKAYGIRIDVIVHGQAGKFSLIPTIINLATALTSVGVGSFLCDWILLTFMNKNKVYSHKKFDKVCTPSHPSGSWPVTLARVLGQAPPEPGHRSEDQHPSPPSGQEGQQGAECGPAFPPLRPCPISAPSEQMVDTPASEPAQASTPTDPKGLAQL
method: Intracellular calcium measurement, antagonist activity at human P2X2/3 receptors (hP2X23 1321N1), Fluo8
Type: cell-based
condition_details: column 4); 1321N1 cells, human P2X2/3, Fluo8, agonist ATP at EC50; read-out: 4) hP2X2/3 IC50 [nM] (1321N1)
// values below are reported IC50

Exam item: Which IC50 is reported with human P2X2/3 receptors (Homo sapiens, UniProt P56373+Q9UBL9) for this entry: CC(C)N1Cc2c(n(CC(=O)Nc3ccc(F)cn3)c3cc(C4CCOC4)nn3c2=O)C1=O (racemic) [Example 228] ?
Marked response: > 23500 nM

Exam item: Which IC50 is reported with human P2X2/3 receptors (Homo sapiens, UniProt P56373+Q9UBL9) for this entry: Cc1cc2n(CC(=O)Nc3ccc(F)cn3)c3c(c(=O)n2n1)CN(C(C)C)C3=O [Example 23] ?
Marked response: > 20600 nM

Exam item: Which IC50 is reported with human P2X2/3 receptors (Homo sapiens, UniProt P56373+Q9UBL9) for this entry: CCc1cc2n(CC(=O)Nc3ccc(F)cn3)c3c(c(=O)n2n1)CN(C[C@@H]1CCCO1)C3=O [Example 279] ?
Marked response: > 23000 nM

Exam item: Which IC50 is reported with human P2X2/3 receptors (Homo sapiens, UniProt P56373+Q9UBL9) for this entry: CC(C)[C@H](C)N1Cc2c(n(CC(=O)Nc3ccc(F)cn3)c3cc(C(C)(C)C)nn3c2=O)C1=O [Example 10] ?
Marked response: > 32000 nM

----------
assayed_system: human P2X2/3 receptors (Homo sapiens, UniProt P56373+Q9UBL9)
Construct: expressed in transfected cells; host or cells: human astrocytoma 1321N1 (1312N1 [sic])
method: Intracellular calcium measurement, antagonist activity at human P2X2/3 receptors (hP2X23 1321N1), Fluo8
Type: cell-based
condition_details: ratio of column 4) hP2X2/3 to column 3) hP2X3, 1321N1
measured_attribute: hP2X23/hP2X3* Selectivity (1321N1)

Sample records with hP2X23/hP2X3* Selectivity (1321N1):
COC[C@@H](C)N1Cc2c(n(CC(=O)Nc3ccc(F)cn3)c3cc(C)nn3c2=O)C1=O = >324
CCc1cc2n(CC(=O)Nc3ccc(F)cn3)c3c(c(=O)n2n1)CN(C1CCN(S(C)(=O)=O)C1)C3=O (stereo not drawn) = >52
CC(C)N1Cc2c(n(CC(=O)Nc3ccc(F)cn3)c3cc(C4CCOC4)nn3c2=O)C1=O (racemic) = >1175
Cc1ccc(NC(=O)Cn2c3c(c(=O)n4nc(C(F)(F)F)cc24)CN(C(C)C)C3=O)nc1 = >55
CC(C)N1Cc2c(n(CC(=O)Nc3ccc(F)cn3)c3cc(C(=O)N(C)C)nn3c2=O)C1=O = >194

Let us move to another entry and its hP2X23/hP2X3* Selectivity (1321N1).
Exam item: Fill blank: measured hP2X23/hP2X3* Selectivity (1321N1) of the compound CCc1cc2n(CC(=O)Nc3ccc(F)cn3)c3c(c(=O)n2n1)CN(C1CCNC1)C3=O (single isomer, unassigned) [Example 278] is ____.
Marked response: >47

----------
assayed_system: human P2X3 receptor (Homo sapiens)
method: Intracellular calcium measurement, antagonist activity at human P2X3 receptors (hP2X3 1321N1), Fluo8
Assay type: cell-based
Parameters: expressed in transfected cells; host or cells: human astrocytoma 1321N1 (1312N1 [sic])
condition_details: column 3); 1321N1 cells, human P2X3, Fluo8, agonist ATP at EC50
Description: 3) And 4) Intracellular Calcium Measurement to Compare Antagonist Activity at Human P2X3 Receptors (hP2X3 1321N1) and at Human P2X2/3 Receptors (hP2X23 1321N1) The comparison of antagonistic activity at the P2X3 versus the P2X2/3 receptor of the compounds of the invention were performed by use of recombinant cell lines. […] The cytoplasmatic calcium transient is detected via the calcium sensitive dye Fluo8. The strength of Fluo8 fluorescence signal corresponds to the level of receptor activation. […]
measured_attribute: IC50 (nM)

CC[C@H](C)N1Cc2c(n(CC(=O)Nc3ccc(F)cn3)c3cc(C)nn3c2=O)C1=O [Example 53] = 200
COCC(C)N1Cc2c(n(CC(=O)Nc3ccc(F)cn3)c3cc(C(C)(C)C)nn3c2=O)C1=O (stereo not shown) [Example 25] = 11
CC(C)N1Cc2c(n(CC(=O)Nc3ccc(F)cn3)c3cc(C(C)(C)C)nn3c2=O)C1=O [Example 1] = 35

P = COC[C@H](C)N1Cc2c(n(CC(=O)Nc3ccc(F)cn3)c3cc(C(F)(F)F)nn3c2=O)C1=O [Example 37]
Q = CC(C)N1Cc2c(n(CC(=O)Nc3ccc(F)cn3)c3cc(-c4ccncc4)nn3c2=O)C1=O [Example 149]
Exam item: Exercise: compare P and Q ; which one has the greater IC50? // return label of chosen record
Marked response: P
